The origin of these recorded values is patent US20260193366A1.

Target: T1, hIL-4Rα on cells (human, UniProt P24394 26-825)
T1 sequence: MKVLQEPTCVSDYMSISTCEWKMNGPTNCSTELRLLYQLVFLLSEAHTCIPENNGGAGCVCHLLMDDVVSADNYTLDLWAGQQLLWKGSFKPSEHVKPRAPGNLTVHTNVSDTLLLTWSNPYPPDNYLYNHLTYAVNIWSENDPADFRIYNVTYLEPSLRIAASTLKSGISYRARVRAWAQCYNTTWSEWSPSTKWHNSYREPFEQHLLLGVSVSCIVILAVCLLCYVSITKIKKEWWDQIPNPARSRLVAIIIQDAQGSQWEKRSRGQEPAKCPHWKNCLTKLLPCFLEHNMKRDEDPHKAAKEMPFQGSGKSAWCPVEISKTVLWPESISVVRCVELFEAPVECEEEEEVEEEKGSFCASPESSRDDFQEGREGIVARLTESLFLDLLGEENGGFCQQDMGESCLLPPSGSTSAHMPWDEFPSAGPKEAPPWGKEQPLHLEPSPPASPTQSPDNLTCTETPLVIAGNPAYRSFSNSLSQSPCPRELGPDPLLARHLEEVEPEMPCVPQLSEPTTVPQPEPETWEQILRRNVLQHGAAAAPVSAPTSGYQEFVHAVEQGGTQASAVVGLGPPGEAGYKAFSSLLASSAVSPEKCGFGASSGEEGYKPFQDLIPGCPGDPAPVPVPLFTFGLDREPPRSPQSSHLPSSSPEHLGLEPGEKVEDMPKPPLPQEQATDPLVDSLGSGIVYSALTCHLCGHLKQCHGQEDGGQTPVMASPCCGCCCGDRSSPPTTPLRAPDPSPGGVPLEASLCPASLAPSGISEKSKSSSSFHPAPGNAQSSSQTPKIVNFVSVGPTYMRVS
Experiment: cell-based or functional assay
Please note: Inhibition of IL-13 induced pSTAT6 IC50 exactly at 0.9 nM is N. Only values below 0.9 nM get Y.

INSERT INTO results (binder, qualitative_label) VALUES
  ('Construct 38 (mAb471) with IgG1 YTE LALA heavy chain constant region (antibody, V domains shown) VH: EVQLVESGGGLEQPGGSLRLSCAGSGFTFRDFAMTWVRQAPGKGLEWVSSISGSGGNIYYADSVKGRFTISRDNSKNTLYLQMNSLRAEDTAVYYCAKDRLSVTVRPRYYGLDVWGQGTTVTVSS VL: DIVMTQSPLSLPVTPGEPASISCRSSQSLLYSIGKNYVDWYLQKSGQSPQLLIYEGNKRASGVPDRFSGSGSGTDFTLKISRVEAEDVGFYYCMQSLTSPYTFGQGTKLEIK', 'N'),
  ('Construct 24 (mAb432) with IgG1 YTE LALA heavy chain constant region (antibody, V domains shown) VH: EVQLVESGGGLEQPGGSLRLSCAGSGFTFRDFAMTWVRQAPGKGLEWVSSISGSGGNIYYADSVKGRFTISRDNSKNTLYLQMNSLRAEDTAVYYCAKDRLSIAVRPRYYGLDVWGQGTTVTVSS VL: DIVMTQSPLSLPVTPGEPASISCTASQSLLYSIGKNYVDWYLQKSGQSPQLLIYLGNNRATGVPDRFSGSGSGTDFTLKISRVEAEDVGFYYCMQSLTSPYTFGQGTKLEIK', 'N'),
  ('Construct 15 (mAb423) with IgG1 YTE LALA heavy chain constant region (antibody, V domains shown) VH: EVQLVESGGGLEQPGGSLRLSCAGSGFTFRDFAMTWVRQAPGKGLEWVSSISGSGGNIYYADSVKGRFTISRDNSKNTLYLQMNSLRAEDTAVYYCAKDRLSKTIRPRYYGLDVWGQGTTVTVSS VL: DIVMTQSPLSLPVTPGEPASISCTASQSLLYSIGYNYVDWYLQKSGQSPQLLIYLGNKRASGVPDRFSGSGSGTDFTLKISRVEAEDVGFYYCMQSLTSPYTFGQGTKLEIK', 'Y'),
  ('Construct 13 (mAb422) with IgG1 YTE LALA heavy chain constant region (antibody, V domains shown) VH: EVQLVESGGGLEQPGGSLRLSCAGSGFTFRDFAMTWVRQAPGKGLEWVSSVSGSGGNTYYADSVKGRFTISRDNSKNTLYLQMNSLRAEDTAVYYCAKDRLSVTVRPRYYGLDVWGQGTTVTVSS VL: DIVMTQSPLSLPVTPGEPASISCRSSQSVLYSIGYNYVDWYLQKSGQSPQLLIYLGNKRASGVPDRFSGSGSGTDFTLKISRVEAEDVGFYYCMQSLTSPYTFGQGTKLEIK', 'Y');
